- tested-target: uniporter with MICU1-MICU1 homodimer (MICU2-KO HEK cells) (Homo sapiens, UniProt Q8NE86+Q9BPX6)
- Sequence (Q8NE86 51-351): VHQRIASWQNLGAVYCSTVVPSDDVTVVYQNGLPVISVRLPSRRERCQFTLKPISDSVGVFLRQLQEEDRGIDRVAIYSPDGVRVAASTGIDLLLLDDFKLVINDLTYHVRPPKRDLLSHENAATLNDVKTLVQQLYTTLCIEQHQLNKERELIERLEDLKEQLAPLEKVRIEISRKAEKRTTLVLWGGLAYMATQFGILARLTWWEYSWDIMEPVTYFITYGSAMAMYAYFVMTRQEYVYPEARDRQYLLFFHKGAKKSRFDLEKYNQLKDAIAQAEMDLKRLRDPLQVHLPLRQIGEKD
- Sequence (Q9BPX6 34-476): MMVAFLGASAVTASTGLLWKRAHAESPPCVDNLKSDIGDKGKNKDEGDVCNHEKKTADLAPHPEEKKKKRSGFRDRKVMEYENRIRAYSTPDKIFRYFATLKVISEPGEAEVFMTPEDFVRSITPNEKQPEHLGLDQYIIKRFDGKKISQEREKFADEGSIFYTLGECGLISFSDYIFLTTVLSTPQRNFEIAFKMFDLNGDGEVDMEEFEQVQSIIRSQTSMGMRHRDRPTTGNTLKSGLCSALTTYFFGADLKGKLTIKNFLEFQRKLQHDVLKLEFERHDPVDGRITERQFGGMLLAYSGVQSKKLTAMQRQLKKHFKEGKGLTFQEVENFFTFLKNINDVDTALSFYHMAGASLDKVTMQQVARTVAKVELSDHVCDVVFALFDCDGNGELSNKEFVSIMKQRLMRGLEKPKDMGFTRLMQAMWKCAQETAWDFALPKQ
- Sequence (Q9H4I9 53-107 partner): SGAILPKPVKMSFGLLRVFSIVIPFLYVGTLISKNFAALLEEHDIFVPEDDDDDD
- experiment-notes: Fluo-4 extramitochondrial Ca2+ in digitonin-permeabilized MICU2-KO HEK cells
pEC50: −log10 of the molar value.
measured-attribute: pEC50

1. NCCCNCCCCNCCCN [spermine] ... 3.80
